Origin of measurements: PubChem BioAssay (NCI)

# Test system: ACHN renal
# MEASUREMENT_DESCRIPTION: NCI-60 one-dose screen, 48 h
# ASSAY_SETUP: 10 µM unless noted
About 83,000 compounds went through this panel and 20% of them were active in at least one assay; those are over-represented in the sample as a whole. Activity calls are given as the source filed them. The calls were made as follows: active = growth percent below 10; inactive = the rest.
Classes used: true (active), false (inactive)

- COMPOUND: "O=C1C=C(SCCO)C(=O)c2ccccc21"
  SYSTEM: "ACHN renal"
  GROUP: "true"
- COMPOUND: "Cc1ccc(S(=O)(=O)OC[C@]23CCC(C)(C)C[C@H]2C2=CC[C@@H]4[C@@]5(C)CCCNC(C)(C)[C@@H]5CC[C@@]4(C)[C@]2(C)CC3)cc1"
  SYSTEM: "ACHN renal"
  GROUP: "false"
- COMPOUND: "CCOC(=O)c1cnn(CC(C)O)c1NC(=O)NCc1cccc(F)c1 (stereo not drawn)"
  SYSTEM: "ACHN renal"
  GROUP: "false"
